The following compounds are listed with their measured 5-HT1A Agonist Activity (GTPγS) % Agonist Activity values.
Molecular target: human 5-HT1A receptor (Homo sapiens, UniProt P08908)
Construct: expressed in transfected cells; host or cells: CHO cells, stably transfected
Sequence (P08908 1-422): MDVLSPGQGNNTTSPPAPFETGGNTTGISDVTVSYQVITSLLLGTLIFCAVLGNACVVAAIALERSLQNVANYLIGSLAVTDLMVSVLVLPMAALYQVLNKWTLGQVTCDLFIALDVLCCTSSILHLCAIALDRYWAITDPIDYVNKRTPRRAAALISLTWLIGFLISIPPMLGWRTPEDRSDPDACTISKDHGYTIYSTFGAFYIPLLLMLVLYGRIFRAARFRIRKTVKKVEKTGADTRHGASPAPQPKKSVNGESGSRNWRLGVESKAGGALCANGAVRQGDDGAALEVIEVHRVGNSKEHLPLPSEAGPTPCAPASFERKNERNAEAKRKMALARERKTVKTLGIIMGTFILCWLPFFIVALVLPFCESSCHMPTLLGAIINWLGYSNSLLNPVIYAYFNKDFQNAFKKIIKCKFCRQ
Experiment: Stimulation of [35S]-GTPγS binding (5-HT1A agonist activity) in CHO cells stably transfected with human 5-HT1A receptor
Assay type: biochemical
Conditions: relative to the effect of the 5-HT1A full agonist 8-OH-DPAT
Structures can show the parent of a compound that is named as a salt.
reportedProperty: 5-HT1A Agonist Activity (GTPγS) % Agonist Activity (%)

{"compound": "O=C(N[C@@H](Cc1ccccc1)CN1CCN(c2ncccn2)CC1)C12CC3CC(CC(C3)C1)C2", "reportedMeasurement": 99}
{"compound": "O=C(N[C@H](Cc1ccccc1)CN1CCN(c2ncccn2)CC1)C12CC3CC(CC(C3)C1)C2 [Example 3, Hemihydrate]", "reportedMeasurement": 100}
{"compound": "O=C(N[C@@H](Cc1ccccc1)CN1CCN(Cc2ccccc2)CC1)C12CC3CC(CC(C3)C1)C2 [Example 2, Dihydrochloride Dihydrate]", "reportedMeasurement": 51}

###

Structures can show the parent of a compound that is named as a salt.
reportedProperty: melting point

{"compound": "O=C(N[C@@H](Cc1ccccc1)CN1CCN(Cc2ccccc2)CC1)C12CC3CC(CC(C3)C1)C2 (as salt: hydrochloride) (hydrate or solvate) [Example 2, Dihydrochloride Dihydrate]", "reportedMeasurement": "263 to 266 °C"}
{"compound": "O=C(N[C@@H](Cc1ccccc1)CN1CCN(c2ncccn2)CC1)C12CC3CC(CC(C3)C1)C2", "reportedMeasurement": "172 to 175 °C"}
{"compound": "O=C(N[C@H](Cc1ccccc1)CN1CCN(c2ncccn2)CC1)C12CC3CC(CC(C3)C1)C2 (hydrate or solvate) [Example 3, Hemihydrate]", "reportedMeasurement": "172 to 175 °C"}
{"compound": "O=C(N[C@H](Cc1ccccc1)CN1CCN(Cc2ccccc2)CC1)C12CC3CC(CC(C3)C1)C2 (as salt: hydrochloride) (hydrate or solvate) [Example 1, Dihydrochloride Dihydrate]", "reportedMeasurement": "261 to 263 °C"}

###

Biological target: human 5-HT1A receptor (Homo sapiens)
Construct: expressed in transfected cells; host or cells: CHO cells, stably transfected
Assay: Block of 8-OH-DPAT-induced stimulation of [35S]-GTPγS binding (5-HT1A antagonist activity) in CHO cells stably transfected with human 5-HT1A receptor
Format: biochemical
Conditions: block of 8-OH-DPAT-induced [35S]-GTPγS binding
Structures can show the parent of a compound that is named as a salt.

{"compound": "O=C(N[C@H](Cc1ccccc1)CN1CCN(Cc2ccccc2)CC1)C12CC3CC(CC(C3)C1)C2 [Example 1, Dihydrochloride Dihydrate]", "EC50 [nM]": 36}
